Experiment: PK study in ICR mice
Type: in vivo, mouse
Settings: both sexes, mouse, plasma, route and dose not given, read-out: Cmax
readout: Cmax

Data request: Give the measured Cmax for `O=C(Nc1ccc(F)c2c1cc1n2CCOC1)c1ccc(NS(=O)(=O)CCO)cc1N1CCC(=C(F)F)CC1`
Data returned: 4.14 µg/mL

Data request: Note Cmax for the compound shown: `O=C(Nc1ccc(OC(F)F)c2c1cc1n2CCC(F)(F)C1)c1ccc(NS(=O)(=O)CCO)cc1N1CCC2(CC1)CC2`
Data returned: 4.41 µg/mL

Data request: Entry `CNc1cc(NS(=O)(=O)CCO)cc(N2CCC3(CC2)CC3)c1C(=O)Nc1ccc(OC)c(N2CCC(F)(F)CC2)n1` needs its Cmax filled in; supply it.
Data returned: 2.3 µg/mL
